- experiment.summary: self-splicing fitness, log relative to wild type (ln ratio); higher = more splicing; Tetrahymena group I intron in knt gene, E. coli kanamycin selection, DiMSum; sequences stand for … in CUCUCU…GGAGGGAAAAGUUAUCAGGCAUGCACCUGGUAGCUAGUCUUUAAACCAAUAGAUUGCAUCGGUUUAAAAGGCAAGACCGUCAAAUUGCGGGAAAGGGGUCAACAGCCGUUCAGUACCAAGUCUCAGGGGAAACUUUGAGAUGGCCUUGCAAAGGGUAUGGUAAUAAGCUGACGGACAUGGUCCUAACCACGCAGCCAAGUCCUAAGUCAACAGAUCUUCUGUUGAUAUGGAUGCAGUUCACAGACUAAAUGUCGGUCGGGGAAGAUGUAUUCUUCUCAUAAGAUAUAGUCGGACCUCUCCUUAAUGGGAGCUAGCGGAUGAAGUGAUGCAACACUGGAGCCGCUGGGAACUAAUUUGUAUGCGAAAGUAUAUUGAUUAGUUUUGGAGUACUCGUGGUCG;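 also: selection with 25 µg/mL kanamycin versus none on LB agar overnight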
- assay.context: 30 °C
Class (required): determined from self-splicing fitness (ln); valid ranges are class 1: < -3; class 2: ≥ -3 and < -2; class 3: ≥ -2

Example entries and their recorded answers appear below.
[
  {
    "primary.sequence": "UACCAGCAAUAUUACGUACC",
    "class.label": "class 2"
  },
  {
    "primary.sequence": "ACAUAGCAAUAUUACGGUCC",
    "class.label": "class 3"
  },
  {
    "primary.sequence": "UCCGAGCAAUAUUACGCAAA",
    "class.label": "class 1"
  },
  {
    "primary.sequence": "GGUCAGCAAUAUUACGGGCG",
    "class.label": "class 3"
  }
]

[in] Please let me know in which category the item CACUAGCAAUAUUACGAAUA belongs.
[out] class 1

[in] Repeat with CACGAGCAAUAUUACGUGCG
[out] class 1

All values here come from the supplement of paper PMC7877785.
